// provenance: the supplement of paper PMC3334620

What PBM E-score was measured for each of the following?
- study-system: Ecm22 (UniProt Q05958)
- Sequence: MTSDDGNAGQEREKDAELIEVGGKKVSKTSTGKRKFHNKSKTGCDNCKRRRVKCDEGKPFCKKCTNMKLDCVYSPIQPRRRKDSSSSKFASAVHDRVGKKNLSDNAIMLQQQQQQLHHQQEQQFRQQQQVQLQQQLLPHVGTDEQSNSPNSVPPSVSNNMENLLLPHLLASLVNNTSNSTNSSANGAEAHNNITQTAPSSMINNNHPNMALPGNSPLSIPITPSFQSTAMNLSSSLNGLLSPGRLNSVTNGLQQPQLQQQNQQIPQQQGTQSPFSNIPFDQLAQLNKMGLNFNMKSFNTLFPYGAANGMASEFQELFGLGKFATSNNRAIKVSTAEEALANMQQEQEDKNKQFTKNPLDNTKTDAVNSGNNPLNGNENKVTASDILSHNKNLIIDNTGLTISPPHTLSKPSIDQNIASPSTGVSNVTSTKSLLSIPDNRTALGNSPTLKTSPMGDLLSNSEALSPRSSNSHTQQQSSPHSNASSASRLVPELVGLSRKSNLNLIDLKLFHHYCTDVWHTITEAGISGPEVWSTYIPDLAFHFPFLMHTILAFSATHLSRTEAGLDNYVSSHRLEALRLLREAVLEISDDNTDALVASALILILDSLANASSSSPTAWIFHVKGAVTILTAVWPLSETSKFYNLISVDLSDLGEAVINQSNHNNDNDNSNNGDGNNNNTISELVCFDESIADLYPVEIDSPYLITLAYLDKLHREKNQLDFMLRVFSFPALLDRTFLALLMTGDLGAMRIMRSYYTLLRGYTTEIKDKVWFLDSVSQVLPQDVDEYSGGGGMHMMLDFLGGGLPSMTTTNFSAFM
- assay-comment: PBM E-score (8-mer binding enrichment) (E-score (-0.5 to 0.5)); higher = stronger / more preferred TF binding
- condition-set: protein concentration: 200 nM; construct: GST-full length
Over roughly 33,000 sequences, “E-score (-0.5 to 0.5)” has its median near -0.041; the highest 2% begin near 0.37. This is one part of a sample in which the highest values are shown more often than they occur.
Lab note: record just the number, no unit beside it.

query: Which PBM E-score is reported for this sequence? CGTCGTCC
result: -0.054

query: Now this one: CAGGCACG
result: -0.112

query: Now this one: CGATCGTA
result: 0.437

query: Now this one: AGTCGTCC
result: -0.0209

query: Now this one: ACGTTAAA
result: 0.213

query: Now this one: ACGATCGC
result: 0.327

query: Now this one: CGGTCGTC
result: -0.0294

query: Now this one: GGGTCGAA
result: -0.0301

query: Now this one: AAGGTACC
result: -0.0364

query: Now this one: AGACGATC
result: -0.0754

query: Now this one: AAGAACCT
result: -0.208

query: Now this one: CGTCGTGC
result: 0.177

query: Now this one: GGACGTAC
result: 0.126

query: Now this one: TCGTAACA
result: 0.425

query: Now this one: AGCATCGG
result: -0.0521

query: Now this one: GCGTAACA
result: 0.00254

query: Now this one: CATCGTCG
result: 0.0968

query: Now this one: CCGTTAAA
result: 0.278

query: Now this one: TCGTATCA
result: 0.463

query: Now this one: CAGGTACG
result: 0.423

query: Now this one: GGATCGAA
result: 0.251

query: Now this one: CGTAGTAG
result: 0.109

query: Now this one: GCCACAAC
result: -0.055

query: Now this one: ACGATCGT
result: 0.43

query: Now this one: ACTGTGAG
result: -0.105

query: Now this one: AGGTCGTG
result: -0.13

query: Now this one: ATGGTACC
result: -0.225

query: Now this one: AAACGATG
result: 0.439

query: Now this one: ATGGTACA
result: -0.122

query: Now this one: TCGTTAAA
result: 0.44

query: Now this one: ACGATCGG
result: 0.274

query: Now this one: CGTCGTAC
result: 0.486

query: Now this one: CGGTCGTA
result: 0.464

query: Now this one: GACCCTCC
result: 0.00379

* * *

What PBM E-score was measured for each of the following?
- study-system: Ecm22 (UniProt Q05958)
- Sequence: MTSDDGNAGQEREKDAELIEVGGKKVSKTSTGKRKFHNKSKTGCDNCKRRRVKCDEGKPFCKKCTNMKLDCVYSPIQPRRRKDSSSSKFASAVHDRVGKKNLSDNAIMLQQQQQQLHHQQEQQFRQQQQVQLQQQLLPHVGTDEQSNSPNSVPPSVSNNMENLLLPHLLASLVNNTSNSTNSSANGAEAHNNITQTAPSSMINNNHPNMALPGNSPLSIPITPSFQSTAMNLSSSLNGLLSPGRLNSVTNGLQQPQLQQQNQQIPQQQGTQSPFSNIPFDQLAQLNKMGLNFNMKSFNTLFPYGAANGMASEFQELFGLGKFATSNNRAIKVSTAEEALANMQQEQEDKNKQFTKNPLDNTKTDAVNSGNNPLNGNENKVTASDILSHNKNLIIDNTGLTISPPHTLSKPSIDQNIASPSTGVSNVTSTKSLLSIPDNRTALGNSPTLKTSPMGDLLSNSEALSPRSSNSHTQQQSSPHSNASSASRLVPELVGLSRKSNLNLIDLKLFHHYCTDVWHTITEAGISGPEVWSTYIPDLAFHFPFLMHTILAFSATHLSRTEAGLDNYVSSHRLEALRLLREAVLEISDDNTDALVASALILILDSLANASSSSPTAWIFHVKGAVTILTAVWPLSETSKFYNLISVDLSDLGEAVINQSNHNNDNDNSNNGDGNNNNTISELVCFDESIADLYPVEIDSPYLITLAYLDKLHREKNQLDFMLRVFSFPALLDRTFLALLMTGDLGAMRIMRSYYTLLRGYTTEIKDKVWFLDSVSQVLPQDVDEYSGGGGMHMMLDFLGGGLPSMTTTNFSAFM
- assay-comment: PBM E-score (8-mer binding enrichment) (E-score (-0.5 to 0.5)); higher = stronger / more preferred TF binding
- condition-set: protein concentration: 200 nM; construct: GST-full length
Whole data set: some 33,000 sequences, median “E-score (-0.5 to 0.5)” near -0.041, cut for the highest 2% near 0.37. The sample as a whole holds a higher share of the highest values than the screen did.
Lab note: record just the number, no unit beside it.

query: Which PBM E-score is reported for this sequence? ACGTTTAC
result: 0.304

query: Now this one: CGCAGTAC
result: 0.174

query: Now this one: ATACGATA
result: 0.458

query: Now this one: GCGTTTAC
result: 0.227

query: Now this one: TCCCTAAA
result: -0.00662

query: Now this one: TAGACCGA
result: 0.175

query: Now this one: CCGTTTAC
result: 0.416

query: Now this one: CGTTCCGA
result: 0.444

query: Now this one: CGTTCCGC
result: 0.458

* * *

- study-system: Ecm22 (UniProt Q05958)
- Sequence: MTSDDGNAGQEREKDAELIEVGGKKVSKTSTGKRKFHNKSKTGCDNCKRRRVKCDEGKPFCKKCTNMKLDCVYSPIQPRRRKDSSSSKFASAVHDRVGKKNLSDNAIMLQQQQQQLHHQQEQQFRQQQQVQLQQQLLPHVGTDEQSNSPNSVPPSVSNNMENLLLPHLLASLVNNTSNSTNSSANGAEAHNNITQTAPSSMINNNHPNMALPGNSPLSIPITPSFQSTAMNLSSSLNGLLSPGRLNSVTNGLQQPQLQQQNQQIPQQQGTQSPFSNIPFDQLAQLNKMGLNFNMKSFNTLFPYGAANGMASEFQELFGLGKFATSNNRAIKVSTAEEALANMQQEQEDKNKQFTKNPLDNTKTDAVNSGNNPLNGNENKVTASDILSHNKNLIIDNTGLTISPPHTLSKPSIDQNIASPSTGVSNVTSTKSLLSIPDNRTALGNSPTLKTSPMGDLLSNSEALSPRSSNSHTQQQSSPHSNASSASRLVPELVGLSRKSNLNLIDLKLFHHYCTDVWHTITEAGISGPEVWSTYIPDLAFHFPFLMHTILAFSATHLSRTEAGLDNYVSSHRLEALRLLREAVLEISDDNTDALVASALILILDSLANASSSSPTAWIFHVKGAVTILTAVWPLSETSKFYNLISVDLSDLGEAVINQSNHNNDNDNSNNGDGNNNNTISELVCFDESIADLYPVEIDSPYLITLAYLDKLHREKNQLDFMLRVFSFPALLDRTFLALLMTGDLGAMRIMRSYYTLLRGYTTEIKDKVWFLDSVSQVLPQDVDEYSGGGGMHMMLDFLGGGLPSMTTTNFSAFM
- assay-comment: PBM E-score (8-mer binding enrichment) (E-score (-0.5 to 0.5)); higher = stronger / more preferred TF binding
- condition-set: protein concentration: 200 nM; construct: GST-full length
In all, about 33,000 sequences were measured (“E-score (-0.5 to 0.5)”: median about -0.041, highest 2% from about 0.37 on). Shown is part of a subset that was picked to be rich in the highest values.
Please enter 1.0 where PBM E-score is greater than or equal to 0.2, and 0.0 where it is lower.

query: Does CCTCCTTA have a reported PBM E-score of at least 0.2?
result: 0.0

query: Now this one: AGTACGGC
result: 1.0

query: Now this one: AAACCCGA
result: 1.0

query: Now this one: GCTGCGAA
result: 0.0

query: Now this one: GGCGATGA
result: 0.0

query: Now this one: GCTACGGA
result: 1.0

query: Now this one: TCCGAGCA
result: 1.0

query: Now this one: AACGAGCG
result: 1.0

query: Now this one: ACTCGCAG
result: 0.0
